Target: FXR (Homo sapiens)
Construct: using a full length FXR on a natural response element; expressed in transfected cells
Sequence (Q96RI1 whole entry, species assumed): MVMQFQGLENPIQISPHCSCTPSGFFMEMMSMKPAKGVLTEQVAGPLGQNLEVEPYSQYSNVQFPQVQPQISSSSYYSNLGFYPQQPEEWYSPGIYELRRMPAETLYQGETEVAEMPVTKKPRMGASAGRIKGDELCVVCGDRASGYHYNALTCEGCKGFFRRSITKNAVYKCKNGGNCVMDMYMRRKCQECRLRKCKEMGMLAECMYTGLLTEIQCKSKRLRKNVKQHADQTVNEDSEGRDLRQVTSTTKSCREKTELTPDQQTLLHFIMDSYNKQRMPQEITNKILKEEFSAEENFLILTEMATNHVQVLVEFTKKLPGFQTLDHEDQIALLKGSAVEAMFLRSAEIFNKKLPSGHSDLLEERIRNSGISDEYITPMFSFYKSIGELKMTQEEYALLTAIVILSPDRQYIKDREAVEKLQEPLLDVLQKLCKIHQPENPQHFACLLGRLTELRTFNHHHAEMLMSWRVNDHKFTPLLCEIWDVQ
Experiment: cell-based transcription assay, FXR responsive promoter linked to a luciferase reporter
Design: scale not given here
Conditions: Tables 1-15; RE not defined in the source
READOUT: RE

1. COC(=O)/C=C/c1cccc(N(Cc2ccc(-c3ccc(F)c(F)c3)cc2)C(=O)NC(C)C)c1 [Compound 215]	0.23
2. COC(=O)C=Cc1cccc(N(Cc2ccc(C=Cc3ccc(F)cc3)cc2)C(=O)C2CCCCC2)c1 [Compound 204]	0.53
3. COC(=O)/C=C/c1cccc(N(Cc2ccc(-c3cccc(C)c3)cc2)C(=O)C(C)C)c1 [Compound 239]	1.09
4. COC(=O)C=Cc1cccc(N(Cc2ccc(C=Cc3cccc(Cl)c3)cc2)C(=O)C2CCCCC2)c1 [Compound 180]	1.41
5. COC(=O)/C=C/c1cccc(N(Cc2ccc(/C=C/c3ccc(C)cc3)cc2)C(=O)C(C)C)c1 [Compound 175]	0.37
6. COC(=O)/C=C/c1cccc(N(Cc2ccc(-c3ccc(C)cc3)cc2)C(=O)NC(C)C)c1 [Compound 237]	0.80
7. CCOCC=Cc1cccc(N(Cc2ccc(C=CC(=O)OC(C)(C)C)cc2)C(=O)C2CCCCC2)c1 [Compound 137]	1.74
8. COC(=O)/C=C/c1cccc(N(Cc2ccc(/C=C/C(=O)OC(C)(C)C)cc2)C(=O)C2CCCC2)c1 [Compound 142]	2.15
9. COC(=O)C=Cc1cccc(N(Cc2ccc(C=Cc3ccccn3)cc2)C(=O)C2CCCCC2)c1 [Compound 207]	0.61
10. CCOCC=Cc1ccc(CN(C(=O)C2CCCCC2)c2cccc(C=CC(=O)OC)c2)cc1 [Compound 157]	2.06

P. COC(=O)/C=C/c1cccc(N(Cc2ccc(-c3ccc(C)cc3)cc2)C(=O)C(C)C)c1 [Compound 236]
Q. COC(=O)/C=C/c1cccc(N(Cc2ccc(/C=C/c3c(Cl)cccc3Cl)cc2)C(=O)C(C)C)c1 [Compound 178]
Query :: Which of these two has the smaller recorded RE: P or Q ? Pick one and reply with its label.
Result :: Q
(Q: 0.14, P: 1.48)

1. COC(=O)C=Cc1cccc(N(Cc2ccc(C=Cc3ccc(OC)cc3)cc2)C(=O)C2CCCCC2)c1 [Compound 122]
2. COC(=O)/C=C/c1cccc(N(Cc2ccc(-c3ccc(OC(F)(F)F)cc3)cc2)C(=O)NC(C)C)c1 [Compound 252]
3. COC(=O)/C=C/c1cccc(N(Cc2ccc(-c3ccc(OC(F)(F)F)cc3)cc2)C(=O)C2CCCCC2)c1 [Compound 250]
Query :: Arrange by RE, high to low. Reply with the item labels sorted in the order that was asked for.
Result :: 1, 3, 2
